tested on: KM12; experiment: NCI tumour cell line growth inhibition, 48 h
The source made the active and inactive calls. Cut-off read from the data, not from the text of the source: active = GI50 up to about 1.1 µM and inactive = higher.
Parameter measured: GI50

The following compounds have reported results that may help.
CCOP(=O)(OCC)C(NC(=O)OCC(Cl)(Cl)Cl)n1nnc(C(=O)OC)c1C(=O)OC (centres undefined) = > 100 µM (inactive)
NNC(=O)c1ccc(-n2nnc(C(=O)NN)c2C(=O)NN)cc1 = > 100 µM (inactive)

The reported value for C=C1CC(Cn2cc(C)c(=O)[nH]c2=O)(c2ccc(Cl)cc2)OC1=O (centres undefined) in terms of GI50 is 13.6 µM (inactive)

Item: Cc1ccc(CC2(OCCN(C)C)CCC(C(C)(C)C)CC2)cc1 (centres undefined) | GI50: 3.62 µM (inactive)

* * *

Listing: GI50 of selected compounds
system: NCI/ADR-RES; test: NCI tumour cell line growth inhibition, 48 h
Active and inactive are the calls of the source. No stated cut-off is given here; in the data, active = GI50 up to about 1.1 µM and inactive = higher.

# annotated cases, reported GI50 shown
CN(C)c1ccc(C(N)=O)cn1 = > 100 µM (inactive)
Nc1ccc(Nc2cc(=O)[nH]c(=O)[nH]2)cc1Cl = > 100 µM (inactive)
CCOC(=O)C(=Cc1ccccc1Br)C(=O)OCC = 4.65 µM (inactive)
Nc1ccn(C2OC(CO)C(O)C2O)c(=O)n1 (stereo not drawn) = 1.16 µM (inactive)
CC1CCN(CC(=O)N2c3ccccc3Sc3cc4ccccc4cc32)CC1 = > 100 µM (inactive)
CSc1ccc(/C=C2\N=C(c3ccccc3)N(/N=C3\C(=O)Nc4ccccc43)C2=O)cc1 = > 100 µM (inactive)
Cc1ccc(/C=C2\N=C(N3CCOCC3)NC2=O)cc1 = > 100 µM (inactive)
C=C1C(=O)O[C@@H]2CC(CO)=C([C@@H](C)CCCO)[C@@H](OC(=O)/C(C)=C\C)[C@H]12 = 20.2 µM (inactive)
O=[N+]([O-])c1ccc2nc(=S)[nH]n2c1 = > 100 µM (inactive)
CCOC(=O)C1CSCCSC1 = > 100 µM (inactive)

Form field GI50, entry O=C1C(=O)C(CCCO)(CCCO)CCCCCCCCC1(CCCO)CCCO : > 100 µM (inactive)

Given item CCOP(=O)(OCC)C(Nc1ccc(Br)cc1)c1cccc([N+](=O)[O-])c1 (stereo not drawn) , the value recorded as its GI50 is 13.5 µM (inactive)

GI50 for CCC(=O)NC(Nc1ccccc1F)(C(F)(F)F)C(F)(F)F is > 100 µM (inactive)

* * *

test system: HOP-92; assay: NCI tumour cell line growth inhibition, 48 h
Activity calls are given as the source filed them. Rule as the data show it: active = GI50 up to about 1.1 µM and inactive = higher.
Pick from y = active, n = inactive when you respond.

CN(C)CCN1N=Nc2cccc3cccc1c23 = n
COc1cc2c(cc1O)[C@@]1(Cc3ccc(OC)c(OC)c3)CCC(=O)N1CC2 = n
Cc1cc(NC(=O)C(=O)Cc2cnc3ccccc3n2)c(S(=O)(=O)O)cc1Cl = n
COc1ccc(C2c3cc4c(cc3OC(N3CCOCC3)C2C)OCO4)cc1 (centres undefined) = n

Lookup: For CCN(CC)CCCNC(=O)C1COc2cc(-c3cc(=O)c4ccccc4o3)ccc2O1 (centres undefined) , which call appears in the assay record?
Found: n

Lookup: Please state the recorded outcome for this compound: O=C(NCc1cccnc1)NCc1cccnc1
Found: n

Lookup: Answer briefly: the call reported for O=C(NCCCN1CCN(CCCNC(=O)Nc2cc(Cl)ccc2Cl)CC1)Nc1cc(Cl)ccc1Cl in this assay.
Found: n

Lookup: Can you look up the reported call for CCOC(=O)/C(=C\NC[C@@H](C)O)c1nc2ccccc2[nH]1 for me?
Found: n

Lookup: So what was the verdict on FC(F)(F)c1nc2nc(Cl)c(Cl)nc2n1CCCN1CCOCC1 in this test?
Found: n

Lookup: Per the records of this test, what outcome belongs to CCN(CC)CCC1CC/C(=C\c2ccc(OC)cc2)C1=O (centres undefined) ?
Found: n

Lookup: Look up the recorded call for Cc1cc2nc3c(=O)n(C)c(=O)nc-3n(-c3ccc(Cl)cc3)c2cc1C in this test.
Found: n

Lookup: Assay outcome for C[C@@H]1[C@H](O)CC2=C(CC[C@@H](O)C2(C)C)[C@@]1(CO)CCc1ccoc1 : what was it?
Found: n

Lookup: Hi team, can someone confirm the assay call for CNc1ncc(-c2nnnn2-c2ccccc2)c(CN(C)C)n1 ?
Found: n

Lookup: Answer briefly: the call reported for O=C1Cc2c([nH]c3c(Cl)cccc23)-c2ccccc2N1 in this assay.
Found: n

Lookup: GET /call?item= O=C1NNC(=O)c2ccccc2SSc2ccccc2C(=O)NNC(=O)c2ccccc2SSc2ccccc21 returns the recorded outcome of this test.
Found: n

Lookup: Status in this test for CCCNC1=C2CC(C)CC(OC)[C@@H](O)[C@H](C)/C=C(\C)C(OC(N)=O)C(OC)/C=C\C=C(/C)C(=O)NC(=CC1=O)C2=O (some centres undefined) ?
Found: y

Lookup: Please let me know the test result on file for Nc1nc(Cl)c(/C=N\O)c(NCC2(CO)CCC2)n1 .
Found: n

Lookup: Please indicate how the test categorized c1ccc(C(NC2CCCCC2NCCNC2CCCCC2NC(c2ccccc2)(c2ccccc2)c2ccccc2)(c2ccccc2)c2ccccc2)cc1 (centres undefined) .
Found: n

Lookup: Call for entry NC(CCCNc1cccc(O)c1)C(=O)O (centres undefined) :
Found: n
